Source: the supplement of paper PMC10567573

# assay_remarks: protein stability index of a GFP-peptide fusion (GPS, HEK-293T) (PSI 1-6); higher = more stable;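 also: 24-mer peptide tiles fused after GFP, lentivirally expressed, FACS-sorted into six equal bins by GFP/DsRed ratio, decoded by Illumina sequencing, PSI is the read-weighted mean bin number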
# measurement_parameters: treatment: DMSO; c terminus: a fixed tail appended
quantity_kind: protein stability index
The response must contain the number and no unit.

Example sequences with recorded protein stability index:
INSERT INTO measurements (primary_sequence, quantity_kind, numeric_value) VALUES
  ('AADRHINFCKEQAARISNKGKFST [ZC2HC1A]', 'protein stability index', 2.57),
  ('NVGGALYYTTMQTLTKQDTMLKAM [KCTD10]', 'protein stability index', 2.6);

Inquiry: Query: protein stability index; subject: GIIPYAGIDLAVYETLKNAWLQHY [SLC25A25]
Reply text: 2.6

Inquiry: Let us now turn to LMELCRLYHRADVEKVLRRWVDEE [EDARADD]
Reply text: 2.5

----------
# assay_remarks: protein stability index of a GFP-peptide fusion (GPS, HEK-293T) (PSI 1-6); higher = more stable
# measurement_parameters: treatment: DMSO; c terminus: native
protein stability index: recorded values

Example sequences with recorded protein stability index:
INSERT INTO results (primary_sequence, result) VALUES
  ('CLRILMGELSNHHDHHDEFCLMP [BEX3]', 2.58),
  ('EEVVYDLSIRGFNKETAAACVEK [TSN]', 4.39),
  ('PACHSFNRAIHKKAKGTEAEEEY [FBXO34]', 5.25),
  ('HMAKERAHSTASHSSSNSEDTEM [PDZK1]', 5.48);

Could you now look at the following sequence, please?
Inquiry: Query: protein stability index; subject: ADWWQEPDAKGDEAEAEPEPELA [P3H4]
Reply text: 5.67

----------
# assay_remarks: protein stability index of a GFP-peptide fusion (GPS, HEK-293T) (PSI 1-6); higher = more stable
# measurement_parameters: treatment: MLN4924 1 uM, 8 h; c terminus: a fixed tail appended
quantity_kind: protein stability index

Example sequences with recorded protein stability index:
INSERT INTO assay_data (primary_sequence, result) VALUES
  ('FPRKSELTEHQRIHTGIKPHQCSE [ZNF649]', 4.24),
  ('LIFSVQPKSLVRLSLEAVICFKEM [KLHDC2]', 2.04),
  ('ATTIDNSRVILEIDNARLAADDFR [KRT15]', 3.74),
  ('EEQATKQFLEEINKWTVQYNVSPL [PTPN9]', 3.15),
  ('RKLFEVESVTHHDYRMELAQAGTP [SPAG8]', 3.57);

Inquiry: Query: protein stability index; subject: FTLNFFRSGIQFGSWGSFQLPGLL [CLCN6]
Reply text: 3.02

Inquiry: Let us now turn to VLGAHRGHPVGLALEAAVHVQKLS [TRIM14]
Reply text: 2.91

----------
# assay_remarks: protein stability index of a GFP-peptide fusion (GPS, HEK-293T) (PSI 1-6); higher = more stable
# measurement_parameters: treatment: DMSO; c terminus: a fixed tail appended
Decision: protein stability index compared against 3; not below it gives criterion met, below it gives criterion not met.

Answered examples (8):
INSERT INTO assay_data (primary_sequence, classification) VALUES
  ('LAKQPGVSVNAQTLDGRTPLHLAA [RIPK4]', 'criterion met'),
  ('NYIGTKNVIETCKEAGVQKLILTS [NSDHL]', 'criterion not met'),
  ('DYRMELAQAGTPAPTKPHDYRQEQ [SPAG8]', 'criterion met'),
  ('LGPAFRGLKGRTLYPAVSAVWGQC [SPSB2]', 'criterion not met'),
  ('CLRRCKRTLPAFQVPYPPRQLLRD [P3H4]', 'criterion not met'),
  ('CRYLNFTKGEEISVYVKLAGERED [MIA2]', 'criterion not met'),
  ('LVYDVEVKSHLLDYVMTTLLFSDK [TRIP13]', 'criterion not met'),
  ('EQQNQEYKILLDVKTRLEQEIATY [KRT17]', 'criterion met');

Inquiry: For this sequence, is measured protein stability index 3 or higher? YPRYPDIHDLDLTLLNPRMIVDVT [CLCN6]
Reply text: criterion not met

Inquiry: Let us now turn to HLEINPDHPIVETLRQKAEADKND [HSP90AB1]
Reply text: criterion met

Inquiry: Let us now turn to RAIMAHMTVEEIYKDRQKFSEQVF [FLOT1]
Reply text: criterion not met

Inquiry: Let us now turn to KLAIIPGGGGTQRLPRAIGMSLAK [AUH]
Reply text: criterion not met

Inquiry: Let us now turn to EEVPEGMEEAAVASVVLPARELQE [BCL2L13]
Reply text: criterion met

----------
protein stability index: recorded values
# assay_remarks: protein stability index of a GFP-peptide fusion (GPS, HEK-293T) (PSI 1-6); higher = more stable
# measurement_parameters: treatment: DMSO; c terminus: a fixed tail appended
The response must contain the number and no unit.

INSERT INTO results (primary_sequence, quantity_kind, numeric_value) VALUES
  ('AGYRLGPAQPGADSSFPPALAEGY [TBX6]', 'protein stability index', 3.45),
  ('LEEGENPVPAFQSDGTDEPESKEP [SMG5]', 'protein stability index', 5.65),
  ('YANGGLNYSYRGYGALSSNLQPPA [NOL4L]', 'protein stability index', 2.49),
  ('AVMEHAESKMYATSPYSDPVVSMD [PTPRD]', 'protein stability index', 4.3),
  ('NFYYFSLIPKTWYSAEQFCVSRNS [CD207]', 'protein stability index', 2.6);

Inquiry: Query: protein stability index; subject: MLIFSLALEEPEKMGLQERSETFL [DNAAF3]
Reply text: 2.18

Inquiry: Let us now turn to KAEELDRRERELQHAALGGTATRQ [SCAMP3]
Reply text: 5.15

Inquiry: Let us now turn to DEEVQRKREMILKRKEEEALKDSL [VDR]
Reply text: 5.35

----------
# assay_remarks: protein stability index of a GFP-peptide fusion (GPS, HEK-293T) (PSI 1-6); higher = more stable
# measurement_parameters: treatment: MLN4924 1 uM, 8 h; c terminus: a fixed tail appended
protein stability index: recorded values
The response must contain the number and no unit.

INSERT INTO measurements (primary_sequence, numeric_value) VALUES
  ('PNKDMVVQLIDDFKISGMNGIHVC [SRPK2]', 2.35),
  ('AGSHQYPGRGVYLLKFDNSYSLWR [ACBD3]', 2.22),
  ('HAPGVPKILVGNRLHLAFKRQVPR [RAB40A]', 2.88),
  ('QRRHGWNPKDCSENIEVKEGGLYF [SPSB2]', 3.76);

Inquiry: Query: protein stability index; subject: AEMLGSVVGNWQYFFPVIFSKASD [MAGEA6]
Reply text: 2.31

Inquiry: Let us now turn to SPSHSPEHRRTARRTPPGQQRPHP [ELOA2]
Reply text: 5.06

----------
# assay_remarks: protein stability index of a GFP-peptide fusion (GPS, HEK-293T) (PSI 1-6); higher = more stable
# measurement_parameters: treatment: MLN4924 1 uM, 8 h; c terminus: a fixed tail appended
Decision: protein stability index compared against 3; not below it gives met, below it gives not met.

Answered examples (2):
INSERT INTO assay_data (primary_sequence, classification) VALUES
  ('VRVCDLLLKKKPPQQQHHKAKRNR [ANKRD17]', 'met'),
  ('FSPANPESSMEDCLAHLGEKVSQE [BCL2L13]', 'met');

Inquiry: For this sequence, is measured protein stability index 3 or higher? LCKDCQVIDGRNVTVTDVDIVFSK [TPPP]
Reply text: met

Inquiry: Let us now turn to EAEEEKGEKEEEDKDDEEKPKIED [HSP90AB1]
Reply text: met

Inquiry: Let us now turn to ENLLLASKLKGAAVKLADFGLAIE [CAMK2A]
Reply text: not met

Inquiry: Let us now turn to LEGVVSQIDAVGSKLKMLERKGWL [PKD2L1]
Reply text: not met

----------
# assay_remarks: protein stability index of a GFP-peptide fusion (GPS, HEK-293T) (PSI 1-6); higher = more stable
# measurement_parameters: treatment: MLN4924 1 uM, 8 h; c terminus: a fixed tail appended
protein stability index: recorded values

Example sequences with recorded protein stability index:
INSERT INTO results (primary_sequence, result) VALUES
  ('YFFLCQPFREILCKKLHIPLKAQN [P2RY14]', 1.99),
  ('NYIGTKNVIETCKEAGVQKLILTS [NSDHL]', 2.84),
  ('KMKQLTEETEVLAHEIERLQMEMK [TRIM35]', 3.63),
  ('QNINAPAPATTSSWEVVRNPLIAS [C22orf31]', 3.7),
  ('WEPFDWGRLLEALCREEPVVQGPD [FANCE]', 3.22),
  ('RYAPLSFRNPMMSKLRNYRKDLAK [VTI1B]', 2.74),
  ('SLNGVYPRMNEVYTRLGEMNNAVR [CEP70]', 3.08),
  ('LLGTSGLKRRFSRLENRYEALAKQ [DAPK3]', 3.06),
  ('AFEESKIDEHHFVAVALRKPDGSR [AASDHPPT]', 4.2),
  ('DGGLLSGNEKITMQNLNDRLASYL [KRT15]', 3.09);

Inquiry: Query: protein stability index; subject: VGDLMGSLAYCLACGGGHLLPYFY [DHCR7]
Reply text: 3.47

Inquiry: Let us now turn to EVVPIHGRGNFPTLEITLKDIVQT [TENT5C]
Reply text: 3.39

Inquiry: Let us now turn to ESSLGSESEEEEEFYDADEETQMI [SLC22A15]
Reply text: 4.88

Inquiry: Let us now turn to LRSQLQTLKQQHQQAVEQIAKAEE [CCDC89]
Reply text: 4.76

Inquiry: Let us now turn to IFCIKRFTKNNFFVEKNPTIVNFP [USP39]
Reply text: 2.38

Inquiry: Let us now turn to HDFLSDLFSDDYGGKNCKKPAEYG [CEBPB]
Reply text: 3.8

Inquiry: Let us now turn to GSEAAVIPLDLGCTQVTQDGDIPN [FAM189A2]
Reply text: 5.26

Inquiry: Let us now turn to PERSDLTLYLIVALATVSLLSLVT [PCDHGC5]
Reply text: 2.27

Inquiry: Let us now turn to SPLTLAACGGHVELAALLIERGAS [ANKRD17]
Reply text: 2.48

Inquiry: Let us now turn to GGAGREDPGLWSRLCRLAGASSPA [ZSWIM9]
Reply text: 2.92

Inquiry: Let us now turn to RGQEPARADQLCQQELRELRRELE [PRPH]
Reply text: 4.53

Inquiry: Let us now turn to CFSVSMLAGPNDRSDVEKGGKIIM [UFD1]
Reply text: 3.2

Inquiry: Let us now turn to LSVTISFRIYKSVIQAVQKSEEGH [RTN3]
Reply text: 3
